# target of assay: h-P2Y2 (Homo sapiens, UniProt P41231)
# Construct: host or cells: human 1321N1 astrocytoma cells, stably transfected
# Sequence (P41231 whole entry): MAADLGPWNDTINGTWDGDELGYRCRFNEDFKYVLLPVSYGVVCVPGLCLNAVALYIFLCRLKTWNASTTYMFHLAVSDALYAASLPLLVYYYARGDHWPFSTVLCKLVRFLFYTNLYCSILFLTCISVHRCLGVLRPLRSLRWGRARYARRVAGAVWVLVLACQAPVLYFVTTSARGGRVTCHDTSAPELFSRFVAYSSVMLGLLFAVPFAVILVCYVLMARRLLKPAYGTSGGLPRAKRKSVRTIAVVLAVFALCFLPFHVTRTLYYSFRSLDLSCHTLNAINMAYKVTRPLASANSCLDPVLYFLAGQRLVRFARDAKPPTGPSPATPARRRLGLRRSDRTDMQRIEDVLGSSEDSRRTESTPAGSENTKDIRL
# experimental protocol: Calcium mobilization assay, h-P2Y2 transfected 1321N1 astrocytoma cells
# Type: cell-based
# experimental setup: Ca2+ mobilization inhibition, transfected 1321N1 cells, 500 μM ATP; read-out: IC50 ± SEM h-P2Y2
pIC50: −log10 of the molar value.
pIC50 below 5 gives class 0; pIC50 at or above it gives class 1.

compound	category
Nc1nc2cc(Cl)ccc2n1C(=O)NS(=O)(=O)c1ccc(Cl)cc1 [1i]	class 0

Qu. Check this compound for pIC50 at or above 5: O=C(NS(=O)(=O)c1ccc([N+](=O)[O-])cc1)n1c(-c2ccccc2)nc2ccccc21 [1o]
Ans. class 0

Qu. Check this compound for pIC50 at or above 5: Nc1nc2ccccc2n1C(=O)NS(=O)(=O)c1cc(Cl)cc(Cl)c1O [1e]
Ans. class 1

Qu. Check this compound for pIC50 at or above 5: Cc1ccc(C(=O)Nc2ccc(S(=O)(=O)O)c3cc(S(=O)(=O)O)cc(S(=O)(=O)O)c23)cc1NC(=O)c1cccc(NC(=O)Nc2cccc(C(=O)Nc3cc(C(=O)Nc4ccc(S(=O)(=O)O)c5cc(S(=O)(=O)O)cc(S(=O)(=O)O)c45)ccc3C)c2)c1 [Suramin, reference compound]
Ans. class 1

Qu. Check this compound for pIC50 at or above 5: O=C(NS(=O)(=O)c1ccc(Cl)cc1)n1c(Cl)nc2ccccc21 [1s]
Ans. class 1

Qu. Check this compound for pIC50 at or above 5: Nc1nc2cc(Cl)ccc2n1C(=O)NS(=O)(=O)c1cc(Cl)cc(Cl)c1O [1h]
Ans. class 1

---

# target of assay: t-P2Y1 (Meleagris gallopavo, UniProt P49652)
# Construct: host or cells: human 1321N1 astrocytoma cells, stably transfected
# Sequence (P49652 whole entry): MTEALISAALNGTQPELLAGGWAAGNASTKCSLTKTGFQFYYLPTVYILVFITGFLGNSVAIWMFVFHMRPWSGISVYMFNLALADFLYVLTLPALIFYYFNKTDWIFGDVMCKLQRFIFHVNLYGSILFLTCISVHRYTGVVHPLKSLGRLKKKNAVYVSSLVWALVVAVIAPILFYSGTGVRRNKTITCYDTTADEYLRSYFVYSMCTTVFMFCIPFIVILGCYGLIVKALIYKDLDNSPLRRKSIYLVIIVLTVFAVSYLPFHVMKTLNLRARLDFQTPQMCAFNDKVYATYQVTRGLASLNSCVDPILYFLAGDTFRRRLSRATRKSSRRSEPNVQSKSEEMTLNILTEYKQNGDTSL
# experimental protocol: Calcium mobilization assay, t-P2Y1 transfected 1321N1 astrocytoma cells
# Type: cell-based
# experimental setup: 1321-N1; final conc of 100 μM; 100 μM ADP
inhibition at 100 µM values by entry
API: value field is a number in %; no unit string.

Illustrative cases are given below, each with its answer.
item smiles	inhibition at 100 µM (%)
Nc1nc2ccccc2n1C(=O)NS(=O)(=O)c1ccc(-c2ccccc2)cc1	12
COc1ccc(S(=O)(=O)NC(=O)n2c(OC)nc3ccccc32)cc1	31
Cc1ccc(S(=O)(=O)NC(=O)n2c(N)nc3cc([N+](=O)[O-])ccc32)cc1	33
COc1nc2ccccc2n1C(=O)NS(=O)(=O)c1ccc(Cl)cc1	42
O=C(NS(=O)(=O)c1ccccc1)n1c(-c2ccccc2)nc2ccccc21	29
Cc1ccc(S(=O)(=O)NC(=O)n2c(N)nc3ccccc32)cc1	49
O=C(NS(=O)(=O)c1ccc(-c2ccccc2)cc1)n1c(-c2ccccc2)nc2ccccc21	27

Now look at this one.
Qu. Which inhibition at 100 µM is reported for this compound? "O=C(NS(=O)(=O)c1ccc([N+](=O)[O-])cc1)n1c(-c2ccccc2)nc2ccccc21"
Ans. 46

---

pIC50 values by entry
# target of assay: h-P2Y4 (Homo sapiens)
# Construct: host or cells: human 1321N1 astrocytoma cells, stably transfected
# Sequence (P51582 whole entry): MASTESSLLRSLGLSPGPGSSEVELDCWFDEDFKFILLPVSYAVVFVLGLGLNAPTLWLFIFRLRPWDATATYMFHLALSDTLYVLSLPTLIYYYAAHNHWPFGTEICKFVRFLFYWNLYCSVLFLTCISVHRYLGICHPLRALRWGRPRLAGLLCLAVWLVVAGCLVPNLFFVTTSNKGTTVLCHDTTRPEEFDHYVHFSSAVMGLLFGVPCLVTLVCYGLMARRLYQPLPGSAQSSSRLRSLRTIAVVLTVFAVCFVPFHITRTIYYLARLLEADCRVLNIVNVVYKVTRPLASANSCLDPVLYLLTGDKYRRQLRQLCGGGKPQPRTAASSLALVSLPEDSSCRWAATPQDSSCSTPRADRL
# experimental protocol: Calcium mobilization assay, h-P2Y4 transfected 1321N1 astrocytoma cells
# Format: cell-based
# experimental setup: Ca2+ mobilization inhibition, transfected 1321N1 cells, 500 μM UTP; read-out: IC50 ± SEM h-P2Y4
Field pIC50 (float): negative decimal logarithm of the concentration in molar.

Qu. Which pIC50 is reported for this compound? O=C(NS(=O)(=O)c1ccc(Cl)cc1)n1c(Cl)nc2ccccc21 [1s]
Ans. 5.57

Qu. Which pIC50 is reported for this compound? Nc1nc2cc(Cl)ccc2n1C(=O)NS(=O)(=O)c1cc(Cl)cc(Cl)c1O [1h]
Ans. 6.04

Qu. Which pIC50 is reported for this compound? Nc1nc2ccccc2n1C(=O)NS(=O)(=O)c1cc(Cl)cc(Cl)c1O [1e]
Ans. 6.22

Qu. Which pIC50 is reported for this compound? Nc1nc2cc(Cl)ccc2n1C(=O)NS(=O)(=O)c1ccc([N+](=O)[O-])cc1 [1k]
Ans. 4.78

The measurements presented in this section are drawn from paper PMC10250618.
